outcome measure: melting point

Here is how some molecules turned out for melting point.
[[record]]
given_smiles = "FC1CCN(c2ccc3c(c2)CCC2(CCN(C4CCC4)CC2)O3)CC1"
test_result = "> 265 °C (dec.)"

[[record]]
given_smiles = "CNC(=O)c1ccc(Nc2ccc3c(c2)COC2(CCN(C4CCC4)CC2)O3)cc1"
test_result = "206 to 208 °C"


Read the next record carefully.
INPUT: Name the recorded melting point for "CN(C)C(=O)c1ccc(-c2ccc3c(c2)COC2(CCN(C4CCC4)CC2)O3)cc1Cl" .
OUTPUT: 80 to 82 °C

---

biological target: human H3 receptor (Homo sapiens, UniProt Q9Y5N1); construct: expressed in transfected cells; assay: Human H3 radioligand binding ([3H]-N-alpha-methylhistamine, SPA); details: human H3 binding, Table D; read-out: Human H3 Ki
Sequence (Q9Y5N1 whole entry): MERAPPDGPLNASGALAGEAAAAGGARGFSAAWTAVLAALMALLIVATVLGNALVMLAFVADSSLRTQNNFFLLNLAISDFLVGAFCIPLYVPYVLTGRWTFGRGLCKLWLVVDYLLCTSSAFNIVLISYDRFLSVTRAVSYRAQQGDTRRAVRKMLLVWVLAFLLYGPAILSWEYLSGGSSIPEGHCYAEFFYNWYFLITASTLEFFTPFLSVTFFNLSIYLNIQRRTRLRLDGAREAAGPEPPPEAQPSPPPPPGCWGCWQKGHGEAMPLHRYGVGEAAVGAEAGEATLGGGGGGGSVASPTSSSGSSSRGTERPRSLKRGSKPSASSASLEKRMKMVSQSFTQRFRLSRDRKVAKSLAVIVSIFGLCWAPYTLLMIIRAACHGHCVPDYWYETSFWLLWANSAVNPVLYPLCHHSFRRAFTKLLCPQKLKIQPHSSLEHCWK
outcome measure: Ki

Some solved entries appear below for comparison.
[[record]]
molecule = "O=C(N[C@H]1CCOC1)c1ccc(-c2ccc3c(c2)COC2(CCN(C4CCC4)CC2)O3)cc1 [Example 600]"
test_result = "< 0.2 µM"

[[record]]
molecule = "CNC(=O)c1ccc(-c2ccc3c(c2)CCC2(CCN(C4CCC4)CC2)O3)nc1 [Example 595]"
test_result = "< 0.2 µM"

[[record]]
molecule = "COc1ccc(-c2ccc3c(c2)COC2(CCN(CC4CCOCC4)CC2)O3)cn1 [Example 716]"
test_result = "> 1 µM"

[[record]]
molecule = "CCS(=O)(=O)c1c[nH]c(=O)cc1-c1ccc2c(c1)COC1(CCN(C3CCC3)CC1)O2 [Example 793]"
test_result = "< 0.2 µM"

[[record]]
molecule = "Cc1cc(C(N)=O)cc(C)c1-c1ccc2c(c1)COC1(CCN(C3CCC3)CC1)O2 [Example 751]"
test_result = "< 0.2 µM"


INPUT: Query Ki on human H3 receptor (Homo sapiens, UniProt Q9Y5N1) for Cc1cc(=O)n(C)cc1-c1ccc2c(c1)COC1(CCN(C3CCC3)CC1)O2 [Example 709]
OUTPUT: < 0.2 µM

INPUT: Here is the next molecule: CC(C)C(=O)NC1CCN(c2ccc3c(c2)CCC2(CCN(C4CCC4)CC2)O3)CC1 [Example 571]
OUTPUT: < 0.2 µM

INPUT: Query CN(C)C(=O)NC1CCN(c2ccc3c(c2)CCC2(CCN(C4CCC4)CC2)O3)CC1 [Example 573] next
OUTPUT: < 0.2 µM

INPUT: Please do the same for COc1cc(-c2ccc3c(c2)COC2(CCN(C4CCC4)CC2)O3)ccc1C(=O)O [Example 624] as well.
OUTPUT: < 0.2 µM

INPUT: Note, next up: Cc1noc(C2CCN(c3ccc4c(c3)COC3(CCN(C5CCC5)CC3)O4)CC2)n1 [Example 628]
OUTPUT: < 0.2 µM

INPUT: Moving on to CNC(=O)c1ccc(-c2ccc3c(c2)COC2(CCN(C4CCC4)CC2)O3)c(C)c1 [Example 681]
OUTPUT: < 0.2 µM

INPUT: Repeat for the following molecule: Cc1nnc(CCc2ccc3c(c2)COC2(CCN(C4CCC4)CC2)O3)o1 [Example 673]
OUTPUT: < 0.2 µM

---

The following compounds are listed with their measured melting point values.

// known answers, use as guide
[[record]]
compound = "Cc1cc(=O)[nH]cc1-c1ccc2c(c1)COC1(CCN(C3CCC3)CC1)O2 [Example 651]"
test_result = "217 to 220 °C"

[[record]]
compound = "O=C(NC1CCOCC1)c1ccc(-c2ccc3c(c2)COC2(CCN(C4CCC4)CC2)O3)cc1F [Example 640]"
test_result = "165 to 167 °C"

[[record]]
compound = "CCSCc1cc(-c2ccc3c(c2)COC2(CCN(C4CCC4)CC2)O3)c[nH]c1=O [Example 774]"
test_result = "205 to 207 °C"

[[record]]
compound = "O=C(CCc1ccc2c(c1)COC1(CCN(C3CCC3)CC1)O2)N1CCOCC1 [Example 660]"
test_result = "71 to 73 °C"

[[record]]
compound = "Cn1nccc1-c1ccc2c(c1)COC1(CCN(C3CCC3)CC1)O2 [Example 740]"
test_result = "107 to 109 °C"


INPUT: Reported melting point for NS(=O)(=O)c1ccc(-c2ccc3c(c2)COC2(CCN(C4CCC4)CC2)O3)cc1 [Example 48] : what is it?
OUTPUT: 195 to 200 °C

INPUT: Now the same for CN(C)C(=O)c1ccc(Oc2ccc3c(c2)CCC2(CCN(C4CCC4)CC2)O3)nc1 [Example 407]
OUTPUT: 267 to 269 °C

INPUT: Please answer likewise for CNC(=O)c1ccc(-c2ccc3c(c2)COC2(CCN(C4CCC4)CC2)O3)cc1C [Example 205]
OUTPUT: 174 to 176.2 °C
